The reported numbers originate from patent EP1734031A1.

# test description: in vivo
# condition description: both, ICR, mouse, po
observable: LD50 at 7 days (mg/kg)
Please respond with the number in mg/kg and leave the unit unwritten.

CCCCC(=O)c1ccccc1C(=O)[O-].[Na+] [Sodium 2-(α-n-pentanonyl)benzoate, sodium 2-(α-n-pentanonyl)benzoate] ... 2650
CCCCC(=O)c1ccccc1C(=O)[O-].[K+] [Potassium 2-(α-n-pentanonyl)benzoate, potassium 2-(α-n-pentanonyl)benzoate] ... 2720

Please turn your attention to the following entry.
Q: Given the entry CCCCC(O)c1ccccc1C(=O)[O-].[K+] (stereo not drawn) [Potassium 2-(α-hydroxypentyl)benzoate] , report its measured LD50 at 7 days.
Ans: 1230
